This collection of values is drawn from BindingDB's records for doi:10.1021/jm00025a010.

# system_under_test: Gag-Pol polyprotein [588-1027]/[588-1147] (Human immunodeficiency virus 1, UniProt P04585)
# Construct: 588-1027; 588-1147
# assay_method_text: HIV-1 RT Assay
Entries annotated with measured IC50

Example cases with answers are listed next.
| query_smiles | system_under_test | meas_value |
| --- | --- | --- |
| S=C(NCCc1ccncc1)Nc1nccs1 | Gag-Pol polyprotein [588-1027]/[588-1147] (Human immunodeficiency virus 1, UniProt P04585) | > 10 µM |
| S=C(NCCc1cccnc1)Nc1nccs1 | Gag-Pol polyprotein [588-1027]/[588-1147] (Human immunodeficiency virus 1, UniProt P04585) | > 10 µM |

Now take the following compound into account.
## Input Tell me the measured IC50 of CCCCCCOc1cccc(CC/N=C(\S)Nc2nccs2)c1 , please.
## Output > 10 µM
